Data provenance: PubChem BioAssay AID1361

assay_comment: blockers of mitochondrial fusion, WT vs mutant – cell-based, chemical genetic, wild-type and mutant, confirmation (AID 1361)
reported_conditions: Cell-based mitochondrial fusion phenotype, imaging, WT cells
Calls of active or inactive are those of the source. The rule behind the calls is not given here.
Allowed answers: YES for active, NO for inactive

Answered examples (4):
| molecule | discrete_label |
| --- | --- |
| Cc1cccc(OCCCC(=O)Nc2ccc3c(c2)OCO3)c1 | NO |
| O=C(Nc1nnc(C2CC2)s1)c1cc(-c2ccccc2)nn1-c1ccccc1 | YES |
| Cc1ccccc1Nc1scc(-c2ccc(Cl)cc2)[n+]1-c1ccccc1C | YES |
| O=C(NCc1ccccn1)C(=O)Nc1nc(C23CC4CC(CC(C4)C2)C3)cs1 | YES |

In: In this assay, the call recorded for CN(c1cccc(NC(=O)Nc2ccc(Cl)cc2)c1)S(C)(=O)=O was what?
Out: NO

In: In this assay, the call recorded for O=C(C1=C[C@H](c2csc3ccccc23)C[C@H](OCc2ccc(CO)cc2)O1)N1CCN(Cc2ccccc2)CC1 was what?
Out: YES

----------
assay_comment: blockers of mitochondrial fusion, WT vs mutant – cell-based, chemical genetic, wild-type and mutant, confirmation (AID 1361)
reported_conditions: Cell-based mitochondrial fusion phenotype, imaging, WT cells
Activity calls are given as the source filed them. The rule behind the calls is not given here.
Allowed answers: yes (1) = active, no (0) = inactive

| molecule | discrete_label |
| --- | --- |
| Cc1ccc(C(C(=O)NC2CCCC2)N(C(=O)Cc2cccs2)c2ccc(C)c(C)c2)o1 (stereo not given) | yes (1) |
| COc1ccccc1-c1cc(C(F)(F)F)nc(NCc2cccs2)n1 | yes (1) |
| Cc1ccc2nc(NCCCNC(=O)c3cnccn3)c(C#N)cc2c1 | no (0) |

In: In this assay, the call recorded for CC1CC(C)CN(c2ncnc3c2cnn3Cc2ccc(Cl)cc2)C1 (stereo not given) was what?
Out: yes (1)

In: In this assay, the call recorded for Cc1nc(N2CCCCC2C)c2c(C)c(C(=O)Nc3cccc(C(F)(F)F)c3)sc2n1 (stereo not given) was what?
Out: yes (1)

----------
assay_comment: blockers of mitochondrial fusion, WT vs mutant – cell-based, chemical genetic, wild-type and mutant, confirmation (AID 1361)
reported_conditions: Cell-based mitochondrial fusion phenotype, imaging, WT cells
The source made the active and inactive calls. No rule for the calls is given here.
Allowed answers: active, inactive

Answered examples (2):
| molecule | discrete_label |
| --- | --- |
| CCC1CCCCN1c1cc(C)nc2cc(-c3cccc(C)c3)nn12 (stereo unspecified) | active |
| CCc1ccccc1NC(=O)/C(=C/c1ccccc1)c1ccccc1 | active |

In: In this assay, the call recorded for COCCn1c(SCc2cc(C(C)=O)ccc2OC)nc2cc(Cl)ccc2c1=O was what?
Out: active

In: In this assay, the call recorded for CN1/C(=C\C(=O)Nc2ccc(Br)cc2)C(C)(C)c2ccccc21 was what?
Out: active

In: In this assay, the call recorded for C=CCC(C(=O)OC)(C(=O)OC)c1ccc([N+](=O)[O-])cn1 was what?
Out: inactive

In: In this assay, the call recorded for CCN(CC)c1ccc(/C=N/NC(=S)NCc2ccco2)cc1 was what?
Out: active

----------
assay_comment: blockers of mitochondrial fusion, WT vs mutant – cell-based, chemical genetic, wild-type and mutant, confirmation (AID 1361)
reported_conditions: Cell-based mitochondrial fusion phenotype, imaging, WT cells
Activity calls are given as the source filed them. No rule for the calls is given here.
Allowed answers: active, inactive

| molecule | discrete_label |
| --- | --- |
| CCCCCC(O)c1cccc(OCc2ccc3ccccc3n2)c1 (stereo unspecified) | active |
| CCC(C)Nc1c([N+](=O)[O-])cc(C)cc1[N+](=O)[O-] (stereo unspecified) | inactive |
| Cc1cc(Cl)ccc1OCC(=O)Nc1nc(-c2cccs2)cs1 | inactive |
| CCOC(=O)c1c(NC(=O)CN2CCN(C(=O)c3ccco3)CC2)sc2c1CCCC2 | active |
| Cc1nc(-c2cccc(NS(=O)(=O)c3cccc4ccccc34)c2)cs1 | active |

We next turn to a different molecule, shown below.
In: In this assay, the call recorded for O=[N+]([O-])c1ccc(Nc2c3ccccc3nc3ccccc23)cc1 was what?
Out: active
